These entries and their values trace back to ChEMBL document CHEMBL3137667.

assay: Times to onset, minimal and maximal, observed in the indexed observations. [column 'DELAI' in source]; details: human
Kindly state Hepatotoxicity (time to onset) for each of the entries shown.

Q. Fill blank: measured Hepatotoxicity (time to onset) of the compound CCN1CCCC1CNC(=O)c1cc(S(N)(=O)=O)ccc1OC (stereo not given) [SULPIRIDE] is ____.
A. 1 week - 3 months

Q. Here is the next compound: "N[C@@H](Cc1ccc(O)c(O)c1)C(=O)O"
A. < 3 months

Q. Can you check "COc1ccc2c(C(=S)N(C)CC(=O)O)cccc2c1C(F)(F)F" next?
A. 7 weeks - 6 months

Q. Next compound up: CC(=O)/N=c1/sc(S(N)(=O)=O)nn1C [METHAZOLAMIDE]
A. 2 weeks

Q. Now give it for "Cc1ncc([N+](=O)[O-])n1CCO" too.
A. 1 day - 2.3 months

Q. // query: "C[C@H]1C[C@@H]2[C@H]([C@@H](O)C[C@@]3(C)[C@H]2CC[C@]3(O)C(=O)CO)[C@@]2(C)C=CC(=O)C=C12"
A. 40 days

Q. // next record "CN(C)CCn1nnnc1SCC1=C(C(=O)O)N2C(=O)[C@@H](NC(=O)Cc3csc(N)n3)[C@H]2SC1"
A. 4 days

Q. Can you handle CC1(C)O[C@@H]2[C@@H](CO[C@@]3(COS(N)(=O)=O)OC(C)(C)O[C@@H]23)O1 [TOPIRAMATE] next?
A. 2 months - 4 months

Q. How about COC(=O)C(c1ccccc1)C1CCCCN1 (stereo not given) [METHYLPHENIDATE] ?
A. 2 days - 2 months

Q. Try this compound next: "CC1=C(/C=C/C(C)=C/C=C/C(C)=C/C(=O)O)C(C)(C)CCC1"
A. 10 days - 38 days

Q. And for CCC(C)n1ncn(-c2ccc(N3CCN(c4ccc(OC[C@H]5CO[C@](Cn6cncn6)(c6ccc(F)cc6F)O5)cc4)CC3)cc2)c1=O (stereo not given in full) ?
A. 8 weeks

Q. Also CC(=O)CC(c1ccc([N+](=O)[O-])cc1)c1c(O)c2ccccc2oc1=O (stereo not given) , if possible.
A. 2 days - 5 years

Q. Now the same for "C#CCN(C)[C@H](C)Cc1ccccc1"
A. 3 months

Q. Another compound: COCCc1ccc(OCC(O)CNC(C)C)cc1 (stereo not given)
A. 5 days - 17 days

Q. Same again, this time with "CC[C@H]1OC(=O)[C@H](C)[C@@H](O[C@H]2C[C@@](C)(OC)[C@@H](O)[C@H](C)O2)[C@H](C)[C@@H](O[C@@H]2O[C@H](C)C[C@H](N(C)C)[C@H]2O)[C@](C)(O)C[C@@H](C)CN(C)[C@H](C)[C@@H](O)[C@]1(C)O"
A. 3 days - 18 days

Q. What about this compound? "CC1=C(C(=O)O)N2C(=O)[C@@H](NC(=O)[C@H](N)C3=CCC=CC3)[C@H]2SC1"
A. 3 weeks

Q. Continue with "O=C1NS(=O)(=O)c2ccccc21"
A. 2 weeks - 2 months

Q. Check "CC(C)(S)C(=O)N[C@@H](CS)C(=O)O" too.
A. 2 weeks

Q. Here is the next compound: "C=CCNc1nc(NCC=C)nc(N2CCN(C(c3ccc(F)cc3)c3ccc(F)cc3)CC2)n1"
A. 1 week

Q. For "Nc1ccc(/N=N/c2ccccc2)c(N)n1" then?
A. 1 week

Q. "CC[C@]1(O)CC[C@H]2[C@@H]3CCC4=CC(=O)CC[C@@H]4[C@H]3CC[C@@]21C" , same question.
A. 2 weeks - 4.5 years

Q. Input "CO[C@@]1(NC(=O)Cc2cccs2)C(=O)N2C(C(=O)O)=C(COC(N)=O)CS[C@@H]21"
A. 17 days

Q. Also "O=C(O)Cc1sc(-c2ccccc2)nc1-c1ccc(Cl)cc1" , if possible.
A. 4 months - 5 months

Q. Another compound: "COc1c2occc2c(OC)c2c(=O)cc(C)oc12"
A. 5 weeks

Q. And what about the compound "c1ccc(C2(N3CCCCC3)CCCCC2)cc1" ?
A. 6 hours - 3 days

Q. Continue with CCCC1C(=O)N2C(N(C)C)=Nc3ccc(C)cc3N2C1=O (stereo not given)
A. 3 weeks

Q. Lookup Cc1cccc(N2CC(CO)OC2=O)c1 (stereo not given)
A. 15 days - 10 months

Q. # iterate: "CCN(CC)CCN1C(=O)CN=C(c2ccccc2F)c2cc(Cl)ccc21"
A. 2 weeks - 6 months

Q. Further, for "CCCc1nn(C)c2c(=O)[nH]c(-c3cc(S(=O)(=O)N4CCN(C)CC4)ccc3OCC)nc12" ?
A. 2 days - 4 months

Q. Also need CC(C(=O)O)c1cccc(C(=O)c2ccccc2)c1 (stereo not given) , thanks.
A. 2 days - 2 weeks

Q. Would you kindly repeat that for CC(=O)O[C@H]1CC[C@H]2[C@@H]3CC[C@H]4CC(=O)C=C(C)[C@]4(C)[C@H]3CC[C@]12C [METHENOLONE ACETATE] ?
A. 1 month - 15 years

Q. Please do the same for O=C(NCCN1CCOCC1)c1ccc(Cl)cc1 [MOCLOBEMIDE] as well.
A. 1 week - 9 days

Q. Again, but for "Cc1c(O)c(=O)ccn1C"
A. 3 months

Q. For CCOC(=O)C1=C(COCCN)NC(C)=C(C(=O)OC)C1c1ccccc1Cl (stereo not given) then?
A. 1 month - 10 months

Q. Can you handle "CN(C)[C@@H]1C(O)=C(C(N)=O)C(=O)[C@@]2(O)C(O)=C3C(=O)c4c(O)cccc4[C@@](C)(O)[C@H]3[C@H](O)[C@@H]12" next?
A. 5 days - 3 weeks
